Reference for the values: patent US20230348398A1

molecular target: human cGAS (residues 161-522) (Homo sapiens (Human), UniProt Q8N884); assay: Malachite Green assay to measure cGAS activity (coupled enzymatic assay, phosphate detection); settings: recombinant human cGAS (residues 161-522) 25 nM, 80 μM GTP, 100 nM ISD, 4 hour at RT, absorbance 620 nm
Sequence (Q8N884 161-522): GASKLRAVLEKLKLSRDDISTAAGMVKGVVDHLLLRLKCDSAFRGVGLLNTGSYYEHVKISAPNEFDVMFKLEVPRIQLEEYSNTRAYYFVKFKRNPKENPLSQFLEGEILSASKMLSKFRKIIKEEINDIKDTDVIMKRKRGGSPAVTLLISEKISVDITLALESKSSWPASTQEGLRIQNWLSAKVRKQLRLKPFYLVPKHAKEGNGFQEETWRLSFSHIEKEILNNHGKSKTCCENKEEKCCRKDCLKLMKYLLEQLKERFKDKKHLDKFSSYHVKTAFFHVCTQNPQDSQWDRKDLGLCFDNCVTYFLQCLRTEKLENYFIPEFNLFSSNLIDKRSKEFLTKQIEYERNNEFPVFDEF
Metric: IC50 (nM)
Please respond with the number in nM and leave the unit unwritten.

Sample records with IC50:
Exam item: Fill in the blank: the reported IC50 of `Cc1ccc(-c2cc(C(=O)O)c3nc(NCc4ccccc4)[nH]c3c2)c(Cl)c1` is ____.
Marked response: 840

Exam item: Fill in the blank: the reported IC50 of `Cc1ccc(-c2cc(C(=O)O)c3nc(CN4CCN(c5ccccc5)CC4)[nH]c3c2)c(Cl)c1` is ____.
Marked response: 1250

Exam item: Fill in the blank: the reported IC50 of `Cc1ccc(-c2cc(C(=O)O)c3nc(CNc4ccccc4)[nH]c3c2)c(Cl)c1` is ____.
Marked response: 690

Please find the next compound below.
Exam item: Fill in the blank: the reported IC50 of `Cc1ccc(-c2cc(C(=O)O)c3nc(Cc4ccccc4)[nH]c3c2)c(Cl)c1` is ____.
Marked response: 1020
